system: SNB-75 CNS; assay: NCI-60 one-dose screen, 48 h (100 = growth as untreated, 0 = no growth, -100 = all killed); details: 10 µM unless noted
The panel holds about 83,000 compounds, 20% with a hit somewhere; the sample as a whole holds those more often.
readout: growth (%)
Value expressed in %; do not type the unit.

Illustrative cases are given below, each with its answer.
INSERT INTO results (compound, readout, value) VALUES
  ('C[As](=O)(O)c1ccc(C(=O)O)cc1', 'growth', 90.2),
  ('CC(=O)C1C(=O)N(C)C(=O)N(C)C1=O', 'growth', 92.1),
  ('CN(C)P1(N(C)C)=NP(N(C)C)(N(C)C)=NP(N(C)C)(N(C)C)=N1', 'growth', 90.3),
  ('O=CN1N=C(c2ccc3c(c2)OCO3)CC1c1sc(N(CCCl)CCCl)nc1Cl (centres undefined)', 'growth', 90.8),
  ('CC(C)(NC(=O)c1nn(CCCCCF)c2ccccc12)c1ccccc1', 'growth', 88.5),
  ('C/C(=C\C(=O)O[C@H]1[C@@H]2[C@H](C)CC[C@H]2[C@]2(C)O[C@@]1(C1CCCCC1)C[C@H]2OC(=O)CO)c1ccccc1', 'growth', 68.3),
  ('N#CC1c2ccccc2C=CN1C(=O)c1ccc(N(CCCl)CCCl)cc1 (centres undefined)', 'growth', 79.6),
  ('c1ccc(-c2ccc3ccccc3[o+]2)cc1', 'growth', 80.5),
  ('CCOP(=O)(OCC)Oc1ccc(Sc2ccc(OP(=O)(OCC)OCC)cc2)cc1', 'growth', 95),
  ('CCOC(=O)C1(c2ccccc2)CCN(CC(=O)c2ccc(NC(C)=O)cc2)CC1', 'growth', 114);

# get_value(readout='growth', item= CCC1([N+](=O)[O-])COP(=O)(NCc2cccnc2)OC1 (centres undefined) )
104

Which growth value is on record for O=C(CCc1ccco1)NC1CCN(CC2(c3ccc(Cl)cc3)CCC2)CC1 ?
16

Can you look up the measured growth of C=C=[CH][Sn]([c]1ccccc1)([c]1ccccc1)[c]1ccccc1 for me?
14.2

Consider the compound S=P(N1CCCCCC1)(N1CC1)N1CC1 and give its measured growth.
98.7

// query growth value for entry Cc1cc(NC(=O)CCc2ccc(N3C(N)=NC(N)=NC3(C)C)cc2)ccc1S(=O)(=O)F
52.5

Given the entry N#Cc1ncc(/N=C/c2ccc(N(CCCl)CCCl)cc2)s1 , report its measured growth.
61.6

Return reported growth; argument: Cc1cc(NC(=O)NCCOc2ccc(N3C(N)=NC(N)=NC3(C)C)cc2Cl)ccc1S(=O)(=O)F
71.5

For the compound C/C(=N/OC(=O)N(C)C)c1cc(Cl)ccc1Cl , what growth is on record?
82.1

Consider the compound shown here: Nc1ccc([N+](=O)[O-])c2c1Oc1ccccc1O2 What is its recorded growth?
82.8

Hello, the source for this data is PubChem BioAssay (NCI), in case you need it.
